Experimental System: UniProt:P29274
Run Description: Displacement of [3H]ZM241385 from human adenosine A2A receptor expressed in CHO cell membranes at 1 uM after 60 mins by scintillation counting method relative to control
Readout Name: inhibition (%)
Respond with the bare value in %.

Request: # inhibition lookup, item `O=C(Nc1nccn2cc(-c3ccccc3)nc12)c1cccnc1`
Result: 13

Request: # inhibition lookup, item `Nc1nc(-c2ccc(OCc3ccccc3)cc2)cn2cc(-c3ccccc3)nc12`
Result: 1

Request: # inhibition lookup, item `Nc1nc(-c2cccc(C(=O)O)c2)cn2cc(-c3ccccc3)nc12`
Result: 9

Request: # inhibition lookup, item `Cc1ccc(C(=O)Nc2nccn3cc(-c4ccccc4)nc23)cc1`
Result: 21

Request: # inhibition lookup, item `O=C(Nc1ccccc1)Nc1nccn2cc(-c3ccccc3)nc12`
Result: 1

Request: # inhibition lookup, item `COc1ccc(C(=O)Nc2nc(-c3ccccc3)cn3cc(-c4ccccc4)nc23)cc1`
Result: 8

* * *

Experimental System: Adenosine receptor A2a (Homo sapiens)
Sequence (P29274 whole entry): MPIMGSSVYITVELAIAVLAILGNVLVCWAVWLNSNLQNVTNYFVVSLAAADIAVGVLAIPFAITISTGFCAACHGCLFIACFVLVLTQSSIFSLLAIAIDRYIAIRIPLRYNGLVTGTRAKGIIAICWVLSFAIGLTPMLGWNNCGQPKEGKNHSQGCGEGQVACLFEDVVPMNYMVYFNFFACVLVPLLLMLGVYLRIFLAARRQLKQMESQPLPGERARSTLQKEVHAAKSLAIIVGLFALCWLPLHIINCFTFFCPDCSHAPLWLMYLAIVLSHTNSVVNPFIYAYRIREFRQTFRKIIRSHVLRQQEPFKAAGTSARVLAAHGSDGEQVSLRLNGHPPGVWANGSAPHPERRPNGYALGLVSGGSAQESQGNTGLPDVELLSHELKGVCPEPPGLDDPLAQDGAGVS
Run Description: Displacement of [3H]ZM241385 from human adenosine A2A receptor expressed in CHO cell membranes at 1 uM after 60 mins by scintillation counting method relative to control
Readout Name: inhibition (%)
Respond with the bare value in %.

Request: # inhibition lookup, item `O=C(Nc1nc(-c2ccccc2)cn2cc(-c3ccccc3)nc12)c1cccs1`
Result: 1

Request: # inhibition lookup, item `O=C(Nc1nc(-c2ccccc2)cn2cc(-c3ccccc3)nc12)c1ccccc1`
Result: 1

Request: # inhibition lookup, item `COc1ccc(-c2cn3cc(-c4ccccc4)nc(NC(=O)c4ccccc4)c3n2)cc1`
Result: 1

Request: # inhibition lookup, item `O=C(c1ccc(F)cc1)N(C(=O)c1ccc(F)cc1)c1nc(-c2ccccc2)cn2cc(-c3ccccc3)nc12`
Result: 1

Request: # inhibition lookup, item `COc1ccc(-c2cn3cc(Br)nc(N)c3n2)cc1`
Result: 11

Request: # inhibition lookup, item `O=C(Nc1nc(-c2ccccc2)cn2cc(-c3ccccc3)nc12)c1cccnc1`
Result: 1

Request: # inhibition lookup, item `Nc1nc(-c2ccco2)cn2cc(-c3ccccc3)nc12`
Result: 38

Request: # inhibition lookup, item `O=C(Nc1nc(-c2ccccc2)cn2cc(-c3ccccc3)nc12)c1ccc(Cl)cc1`
Result: 1

Request: # inhibition lookup, item `Cc1ccc(C(=O)Nc2nc(-c3ccccc3)cn3cc(-c4ccccc4)nc23)cc1`
Result: 1

Request: # inhibition lookup, item `O=C(Nc1nccn2cc(-c3ccccc3)nc12)c1ccco1`
Result: 34

* * *

For each record, write down the corresponding inhibition.
Experimental System: Adenosine receptor A2b (Homo sapiens) (UniProt P29275)
Sequence (P29275 whole entry): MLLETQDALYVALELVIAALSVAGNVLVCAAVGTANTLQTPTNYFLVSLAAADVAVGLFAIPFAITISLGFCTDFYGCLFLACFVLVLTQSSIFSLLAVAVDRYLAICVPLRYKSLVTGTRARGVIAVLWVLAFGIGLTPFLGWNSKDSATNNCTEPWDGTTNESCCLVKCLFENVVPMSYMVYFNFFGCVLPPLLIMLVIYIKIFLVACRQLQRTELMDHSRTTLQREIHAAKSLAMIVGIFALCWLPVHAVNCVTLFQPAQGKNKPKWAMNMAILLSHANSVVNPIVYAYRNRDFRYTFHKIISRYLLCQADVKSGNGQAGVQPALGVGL
Run Description: Antagonist activity at human A2B receptor expressed in CHO cells assessed as inhibition of NECA-stimulated cAMP production at 1 uM by [3H]cAMP competition binding based scintillation counting method relative to control
Format: functional, cell-based
Respond with the bare value in %.

Request: # inhibition lookup, item `O=C(Nc1nccn2cc(-c3ccccc3)nc12)c1ccco1`
Result: 19

Request: # inhibition lookup, item `O=C(Nc1nccn2cc(-c3ccccc3)nc12)c1ccccc1`
Result: 2

Request: # inhibition lookup, item `O=C(Nc1nccn2cc(-c3ccccc3)nc12)c1cccnc1`
Result: 22

Request: # inhibition lookup, item `Nc1nc(-c2cccc(C(=O)O)c2)cn2cc(-c3ccccc3)nc12`
Result: 3

Request: # inhibition lookup, item `O=C(Nc1nc(-c2ccccc2)cn2cc(-c3ccccc3)nc12)c1cccs1`
Result: 4

Request: # inhibition lookup, item `COc1ccc(-c2cn3ccnc(N)c3n2)cc1`
Result: 1

Request: # inhibition lookup, item `O=C(Nc1ccccc1)Nc1nccn2cc(-c3ccccc3)nc12`
Result: 1

Request: # inhibition lookup, item `O=C(Nc1nccn2cc(-c3ccccc3)nc12)C(c1ccccc1)c1ccccc1`
Result: 25

Request: # inhibition lookup, item `COc1ccc(-c2cn3ccnc(NC(=O)c4ccccc4)c3n2)cc1`
Result: 1

Request: # inhibition lookup, item `O=C(c1ccc(F)cc1)N(C(=O)c1ccc(F)cc1)c1nc(-c2ccccc2)cn2cc(-c3ccccc3)nc12`
Result: 3

Request: # inhibition lookup, item `Nc1nc(-c2ccco2)cn2cc(-c3ccco3)nc12`
Result: 30

Request: # inhibition lookup, item `O=C(Nc1nc(-c2ccccc2)cn2cc(-c3ccccc3)nc12)c1cccnc1`
Result: 3

Request: # inhibition lookup, item `O=C(Nc1nc(-c2ccccc2)cn2cc(-c3ccccc3)nc12)c1ccc(F)cc1`
Result: 2

Request: # inhibition lookup, item `Nc1nccn2cc(-c3ccco3)nc12`
Result: 1

Request: # inhibition lookup, item `O=C(Nc1nc(-c2ccccc2)cn2cc(-c3ccccc3)nc12)c1ccc(Cl)cc1`
Result: 1

Request: # inhibition lookup, item `O=C(Nc1nc(-c2ccccc2)cn2cc(-c3ccccc3)nc12)c1ccccc1`
Result: 1

Request: # inhibition lookup, item `Nc1nc(-c2ccc(OCc3ccccc3)cc2)cn2cc(-c3ccccc3)nc12`
Result: 4

Request: # inhibition lookup, item `O=C(Cc1ccccc1)Nc1nccn2cc(-c3ccccc3)nc12`
Result: 15

Request: # inhibition lookup, item `COc1ccc(C(=O)Nc2nccn3cc(-c4ccccc4)nc23)cc1`
Result: 1

Request: # inhibition lookup, item `Nc1nc(Br)cn2cc(-c3ccccc3)nc12`
Result: 40

Request: # inhibition lookup, item `COc1ccc(C(=O)Nc2nc(-c3ccccc3)cn3cc(-c4ccccc4)nc23)cc1`
Result: 1

Request: # inhibition lookup, item `COc1ccc(-c2cn3cc(-c4ccccc4)nc(N)c3n2)cc1`
Result: 1

Request: # inhibition lookup, item `COc1ccc(-c2cn3cc(Br)nc(N)c3n2)cc1`
Result: 27
